// molecules with Ki on UniProtKB P06401, multi-source literature
Sequence (P06401 whole entry): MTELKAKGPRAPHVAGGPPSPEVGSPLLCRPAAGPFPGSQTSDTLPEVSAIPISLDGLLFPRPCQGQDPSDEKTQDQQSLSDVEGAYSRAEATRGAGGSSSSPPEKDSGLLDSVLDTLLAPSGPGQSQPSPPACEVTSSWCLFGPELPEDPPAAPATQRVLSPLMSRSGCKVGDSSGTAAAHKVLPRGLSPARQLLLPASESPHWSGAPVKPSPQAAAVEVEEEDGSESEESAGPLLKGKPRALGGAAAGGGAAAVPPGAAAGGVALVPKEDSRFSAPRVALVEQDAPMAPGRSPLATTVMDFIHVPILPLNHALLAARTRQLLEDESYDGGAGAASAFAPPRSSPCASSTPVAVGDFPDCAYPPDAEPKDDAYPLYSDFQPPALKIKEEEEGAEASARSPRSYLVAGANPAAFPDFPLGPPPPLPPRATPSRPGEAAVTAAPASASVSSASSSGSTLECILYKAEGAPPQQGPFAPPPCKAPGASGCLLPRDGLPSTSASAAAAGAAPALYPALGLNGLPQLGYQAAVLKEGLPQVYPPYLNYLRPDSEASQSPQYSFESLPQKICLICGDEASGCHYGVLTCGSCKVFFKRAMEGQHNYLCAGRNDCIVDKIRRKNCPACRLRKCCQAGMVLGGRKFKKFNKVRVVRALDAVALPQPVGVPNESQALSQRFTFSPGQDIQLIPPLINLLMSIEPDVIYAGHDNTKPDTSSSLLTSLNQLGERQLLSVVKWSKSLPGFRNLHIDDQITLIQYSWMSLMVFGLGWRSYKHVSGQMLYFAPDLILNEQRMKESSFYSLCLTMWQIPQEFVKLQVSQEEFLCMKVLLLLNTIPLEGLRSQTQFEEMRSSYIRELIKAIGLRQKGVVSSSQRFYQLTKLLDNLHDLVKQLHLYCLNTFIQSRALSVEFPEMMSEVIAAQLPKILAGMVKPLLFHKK
Reported endpoint: Ki

Molecule	Assayed system	Reported endpoint	Result value
COc1cccc2c1-c1ccc3c(c1C(c1ccccc1)O2)C(C)=CC(C)(C)N3 (stereo in doubt; 10)	UniProtKB P06401	Ki	> 5000 nM
C#C[C@]1(O)CC[C@H]2[C@@H]3CCC4=CC(=O)CCC4=C3[C@@H](c3ccc(N(C)CCOCCO[C@@H]4CC[C@@]5(C)[C@@H](C4)C[C@@H](O)[C@@H]4[C@@H]5C[C@H](O)[C@]5(C)[C@@H]([C@H](C)CCC(=O)O)CC[C@@H]45)cc3)C[C@@]21C	UniProtKB P06401	Ki	1.7 nM
CN(C)C(=O)NC(=O)C(C)(C)[C@@H]1c2ccc(-c3ccc(C(=O)N4CCOCC4)cc3)nc2Oc2c(F)cccc21	UniProtKB P06401	Ki	10600 nM
Cc1c[nH]c2c(-c3c(F)cc4c(c3F)/C(=N/OC(C)(C)CO)CC(C)(C)N4)cccc12	UniProtKB P06401	Ki	950 nM
CS(=O)(=O)Nc1cccc2c(-c3cccc(Cl)c3)c[nH]c12	UniProtKB P06401	Ki	5.51 nM
Cc1c(Cl)c(-c2cccc3cc[nH]c23)cc2c1NC(C)(C)[C@H](O)[C@H]2C (racemic)	UniProtKB P06401	Ki	190 nM
O=c1[nH]c2ccc(-c3cccc(Cl)c3)cc2n1Cc1ccccc1	UniProtKB P06401	Ki	521 nM
CC(=O)c1cccc(NC(=O)O[C@@H]2[C@@H](C)c3c(cc(F)c(-c4cccc5cc[nH]c45)c3F)NC2(C)C)c1 (racemic)	UniProtKB P06401	Ki	680 nM
C=CCCC1Oc2cccc(OC)c2-c2ccc3c(c21)C(C)=CC(C)(C)N3 (stereo not given)	UniProtKB P06401	Ki	> 5000 nM
O=C1C=C2CCc3cc(O)ccc3C2(Cc2ccccc2)CC1 (single isomer, unassigned; form 1)	UniProtKB P06401	Ki	> 10000 nM
CCCC(c1ccc2c(cnn2-c2ccc(F)cc2)c1)C(C)(C)C(=O)Nc1nncs1 (racemic)	UniProtKB P06401	Ki	109 nM
CN(C)C(=O)c1ccc(-c2ccc3c(n2)Oc2ccccc2[C@H]3C(C)(C)C(=O)Nc2nncs2)cc1F	UniProtKB P06401	Ki	1530 nM
C=C1C=CCC(C)(C)C1Cc1cc(OC)c(Br)cc1O (stereo not given)	UniProtKB P06401	Ki	156 nM
COc1c(O)ccc2c1-c1ccc3c(c1/C(=C/c1sccc1C(C)O)O2)C(C)=CC(C)(C)N3 (racemic)	UniProtKB P06401	Ki	2290 nM
CCC1Oc2cccc(OC)c2-c2ccc3c(c21)C(C)=CC(C)(C)N3 (stereo not given)	UniProtKB P06401	Ki	> 5000 nM
CC1=CC(C)(C)Nc2ccc3c(c21)/C(=C/c1cc(F)ccc1F)Oc1ccccc1-3	UniProtKB P06401	Ki	1.5 nM
COc1cc(F)ccc1-c1c(Cc2ccccc2)[nH]c2c(NS(C)(=O)=O)cc(C(C)C)cc12	UniProtKB P06401	Ki	4000 nM
CC1=CC(C)(C)Nc2cc3c(cc21)-c1c(F)cc(F)cc1C3O (stereo not given)	UniProtKB P06401	Ki	25.5 nM
CC(C)(C(=O)Nc1nccs1)[C@H]1c2ccccc2Oc2cc(O)ccc21	UniProtKB P06401	Ki	22 nM
C[C@@H]1C(=O)C(C)(C)Nc2ccc3c(c21)[C@H](c1cccc(C(F)(F)F)c1)Oc1ccccc1-3	UniProtKB P06401	Ki	16.6 nM
COc1cccc2c1-c1ccc3c(c1C(CCO)O2)C(C)=CC(C)(C)N3 (stereo not given)	UniProtKB P06401	Ki	> 5000 nM
CC1=CC(C)(C)Nc2ccc3c(c21)C(c1ccc(Cl)c(C)c1)Oc1ccccc1-3 (stereo not given)	UniProtKB P06401	Ki	1.2 nM
CC(C)Oc1ccc(-c2ccc3c(n2)Oc2ccccc2[C@H]3C(C)(C)C(=O)Nc2nncs2)cc1	UniProtKB P06401	Ki	310 nM
CC1=CC(C)(C)Nc2ccc3c(c21)Cc1cc([N+](=O)[O-])c(F)cc1-3	UniProtKB P06401	Ki	97 nM
CC(C)(C(=O)Nc1nccs1)[C@@H](c1ccccc1)c1ccc(O)c(C#N)c1	UniProtKB P06401	Ki	144 nM
COc1cccc2c1-c1ccc3c(c1C(C(C)C)O2)C(C)=CC(C)(C)N3 (stereo not given)	UniProtKB P06401	Ki	> 5000 nM
CC1=CC(C)(C)Nc2ccc3c(c21)C(c1ccc(F)c(C(F)(F)F)c1)Oc1ccccc1-3 (stereo not given)	UniProtKB P06401	Ki	6.8 nM
C[C@]12Cn3cnc(-c4ccc(F)cc4)c3C=C1CCC[C@@H]2[C@](C)(O)c1ccc(Cl)cc1	UniProtKB P06401	Ki	238 nM
CC1=CC(C)(C)Nc2cc3c(cc21)-c1ccc(F)cc1C3	UniProtKB P06401	Ki	3.5 nM
C[C@@H]1CC(C)(C)Nc2ccc3c(c21)[C@H](c1ccc(Cl)cc1)Oc1ccccc1-3	UniProtKB P06401	Ki	91 nM
C#C[C@]1(O)CC[C@H]2[C@@H]3CCC4=CC(=O)CCC4=C3[C@@H](c3ccc(N(C)C(=O)CNC(=O)OC4CC[C@@]5(C)[C@@H](C4)C[C@@H](O)[C@@H]4[C@@H]5C[C@H](O)[C@]5(C)[C@@H]([C@H](C)CCC(=O)O)CC[C@@H]45)cc3)C[C@@]21C (stereo not given in full)	UniProtKB P06401	Ki	2.4 nM
CC1=CC(C)(C)Nc2cc3c(cc21)-c1ccc(Br)cc1C3	UniProtKB P06401	Ki	24 nM
CC1=CC(C)(C)Nc2ccc3c(c21)Cc1ccccc1-3	UniProtKB P06401	Ki	13 nM
COc1c(O)ccc2c1-c1ccc3c(c1/C(=C/c1ccc(F)cc1CO)O2)C(C)=CC(C)(C)N3	UniProtKB P06401	Ki	970 nM
CC1=CC(C)(C)Nc2cc(F)c3c(c21)C(O)c1cc(F)ccc1-3 (stereo not given)	UniProtKB P06401	Ki	2580 nM
